From: the supplement of paper PMC10883282

tested on: KHOS-240S; test: relative viability vs DMSO control (72 h) (fraction); higher = more viable cells; conditions: 0.01372 µM
Quick reference for relative viability among some compounds
Answer with a number only.

In [3]: df
Out[3]:
                                   compound  target_desc        assay_metric  observed_result
0  CO[C@@H]1[C@H](N(C)C(=O)c2ccccc2)C[C@H]2O[C@]1(C)n1c3ccccc3c3c4c(c5c6ccccc6n2c5c31)C(=O)NC4 [Midostaurin]    KHOS-240S  relative viability             1.02
1  C[C@@H](Oc1cc(-c2cnn(C3CCNCC3)c2)cnc1N)c1c(Cl)ccc(F)c1Cl [Crizotinib]    KHOS-240S  relative viability             1.05

Consider now this further compound.
Given the entry COc1cc2nccc(Oc3ccc(NC(=O)NC4CC4)c(Cl)c3)c2cc1C(N)=O [Lenvatinib] , report its measured relative viability.
0.977

* * *

test system: SW982; test: relative viability vs DMSO control (72 h) (fraction); higher = more viable cells; conditions: 0.00017 µM
assay.metric: relative viability
Answer with a number only.

Some solved cases for reference:
>>> df
                           molecular_string        assay_metric  observed_result
0  COc1cc2c(Oc3ccc4[nH]c(C)cc4c3F)ccnc2cc1OCC1(N)CC1  relative viability             1.03
1  CCCS(=O)(=O)N[C@H]1C[C@@H](N(C)c2ncnc3[nH]ccc23)C1  relative viability             1.03
2  C[C@H]1Oc2cc(cnc2N)-c2c(nn(C)c2C#N)CN(C)C(=O)c2ccc(F)cc21  relative viability             1.01

Consider now this further molecule.
Write down the reported relative viability of `Cc1nc(Nc2ncc(C(=O)Nc3c(C)cccc3Cl)s2)cc(N2CCN(CCO)CC2)n1` , test system: SW982.
1.05

* * *

Quick reference for relative viability among some compounds
tested on: HS729; experiment: relative viability vs DMSO control (72 h) (fraction); higher = more viable cells; details: 1.111 µM

Some solved cases for reference:
>>> print(df.to_string())
                           molecular_string  observed_result
0  CN1CCN(CCOc2cc(OC3CCOCC3)c3c(Nc4c(Cl)ccc5c4OCO5)ncnc3c2)CC1            0.691
1  COc1cc(OC)cc(N(CCNC(C)C)c2ccc3ncc(-c4cnn(C)c4)nc3c2)c1            0.487
2  C1=N/C2=N/c3ccc(OCCN4CCCC4)c(c3)COC/C=C/COCc3cccc(c3)C(=C1)N2            0.698
3  C=CC(=O)Nc1cccc(Nc2nc(Nc3ccc(N4CCN(C(C)=O)CC4)cc3OC)ncc2C(F)(F)F)c1            0.697
4  C[C@H]1Oc2cc(cnc2N)-c2c(nn(C)c2C#N)CN(C)C(=O)c2ccc(F)cc21            0.803

Given the entry `Cc1cn(-c2cc(NC(=O)c3ccc(C)c(Nc4nccc(-c5cccnc5)n4)c3)cc(C(F)(F)F)c2)cn1` , report its measured relative viability.
0.766

* * *

system: SYO-1; experiment: relative viability vs DMSO control (72 h) (fraction); higher = more viable cells; conditions: 0.00152 µM
Quick reference for relative viability among some compounds
Answer with a number only.

Some solved cases for reference:
molecular.string	relative viability
FC(F)(F)c1ccc(CNc2ccc(Cc3c[nH]c4ncc(Cl)cc34)cn2)cn1	0.953
CO[C@H]1C[C@@H]2CC[C@@H](C)[C@@](O)(O2)C(=O)C(=O)N2CCCC[C@H]2C(=O)O[C@H]([C@H](C)C[C@@H]2CC[C@@H](O)[C@H](OC)C2)CC(=O)[C@H](C)/C=C(\C)[C@@H](O)[C@@H](OC)C(=O)[C@H](C)C[C@H](C)/C=C/C=C/C=C/1C	0.875
COc1cc2nccc(Oc3ccc(NC(=O)NC4CC4)c(Cl)c3)c2cc1C(N)=O	1.02

Consider now this further compound.
Given the entry `C1=N/C2=N/c3ccc(OCCN4CCCC4)c(c3)COC/C=C/COCc3cccc(c3)C(=C1)N2` , report its measured relative viability.
0.997

* * *

Quick reference for relative viability among some compounds
test system: G401; assay: relative viability vs DMSO control (72 h) (fraction); higher = more viable cells; settings: 1.111 µM
Answer with a number only.

Some solved cases for reference:
>>> df
                                   compound        assay_metric  observed_result
0  COc1cc(Nc2c(C#N)cnc3cc(OCCCN4CCN(C)CC4)c(OC)cc23)c(Cl)cc1Cl [Bosutinib]  relative viability             1.03
1  C=CC(=O)Nc1cc(Nc2nccc(-c3cn(C)c4ccccc34)n2)c(OC)cc1N(C)CCN(C)C [Osimertinib]  relative viability            0.816
2  CN(C)C[C@@H]1CCn2cc(c3ccccc32)C2=C(C(=O)NC2=O)c2cn(c3ccccc23)CCO1 [Ruboxistaurin]  relative viability            0.958
3  Cc1cccc(-c2[nH]c(CNc3ccccc3F)nc2-c2ccc3ncnn3c2)n1 [Vactosertib]  relative viability            0.964

Consider now this further compound.
Given the entry C[C@@H](Oc1cc(-c2cnn(C3CCNCC3)c2)cnc1N)c1c(Cl)ccc(F)c1Cl [Crizotinib] , report its measured relative viability.
0.745

* * *

test system: SW982; test: relative viability vs DMSO control (72 h) (fraction); higher = more viable cells; details: 0.00051 µM
Binarize relative viability at 1; below is Y, at or above is N.

Decide: relative viability of Cc1ccc(C(=O)OCc2ccc([C@@H](CN)C(=O)Nc3ccc4cnccc4c3)cc2)c(C)c1 [Netarsudil] strictly below 1?
N

Then this molecule: C=CC(=O)Nc1cc(Nc2nccc(-c3cn(C)c4ccccc34)n2)c(OC)cc1N(C)CCN(C)C [Osimertinib]
N

Then this molecule: Cc1cc(Nc2ncc(Cl)c(Nc3ccccc3S(=O)(=O)C(C)C)n2)c(OC(C)C)cc1C1CCNCC1 [Ceritinib]
Y

Then this molecule: C=CC(=O)Nc1cccc(Nc2nc(Nc3ccc(N4CCN(C(C)=O)CC4)cc3OC)ncc2C(F)(F)F)c1 [Rociletinib]
N

Then this molecule: FC(F)(F)c1ccc(CNc2ccc(Cc3c[nH]c4ncc(Cl)cc34)cn2)cn1 [Pexidartinib]
N

Then this molecule: CC[C@@H]1C(=O)N(C)c2cnc(Nc3ccc(C(=O)N[C@H]4CC[C@H](N5CCN(CC6CC6)CC5)CC4)cc3OC)nc2N1C(C)C [Volasertib]
N

* * *

Quick reference for relative viability among some compounds
system: RD; assay: relative viability vs DMSO control (72 h) (fraction); higher = more viable cells; conditions: 3.333 µM
Answer with a number only.

Some solved cases for reference:
>>> df
                           molecular_string  observed_result
0  Cc1cccc(-c2[nH]c(CNc3ccccc3F)nc2-c2ccc3ncnn3c2)n1             1.07
1  Cc1ccc(NC(=O)c2ccc(CN3CCN(C)CC3)cc2)cc1Nc1nccc(-c2cccnc2)n1                1
2  C1=N/C2=N/c3ccc(OCCN4CCCC4)c(c3)COC/C=C/COCc3cccc(c3)C(=C1)N2            0.158
3  COc1cc2ncnc(Nc3cccc(Cl)c3F)c2cc1OC(=O)N1CCN(C)C[C@H]1C             1.06
4  COc1cc2c(Oc3ccc4[nH]c(C)cc4c3F)ccnc2cc1OCC1(N)CC1            0.594

Given the entry `CC[C@@H]1C(=O)N(C)c2cnc(Nc3ccc(C(=O)N[C@H]4CC[C@H](N5CCN(CC6CC6)CC5)CC4)cc3OC)nc2N1C(C)C` , report its measured relative viability.
0.119

Then this compound: `C[C@@H]1COC(Nc2ccc3ncnc(Nc4ccc(OCc5nccs5)c(Cl)c4)c3c2)=N1`
1.05

Then this compound: `COc1cc2nccc(Oc3ccc(NC(=O)NC4CC4)c(Cl)c3)c2cc1C(N)=O`
1.08

Then this compound: `CCN(c1cc(-c2ccc(CN3CCOCC3)cc2)cc(C(=O)NCc2c(C)cc(C)[nH]c2=O)c1C)C1CCOCC1`
1.04

* * *

test system: G401; assay: relative viability vs DMSO control (72 h) (fraction); higher = more viable cells; details: 0.00152 µM
Quick reference for relative viability among some compounds

>>> df
                           molecular_string  observed_result
0  CNC(=O)c1cc(Oc2ccc(NC(=O)Nc3ccc(Cl)c(C(F)(F)F)c3)cc2)ccn1             1.01
1  CN(C)C[C@@H]1CCn2cc(c3ccccc32)C2=C(C(=O)NC2=O)c2cn(c3ccccc23)CCO1            0.988

Given the entry `Cc1cn(-c2cc(NC(=O)c3ccc(C)c(Nc4nccc(-c5cccnc5)n4)c3)cc(C(F)(F)F)c2)cn1` , report its measured relative viability.
0.968
